- System: MIA PaCa-2 cells (KRAS G12C mutant)
- procedureText: MIA PaCa-2 cell anti-proliferation (CellTiter-Glo)
- Assay type: cell-based
- details: Homo sapiens, 72 h; MIA Paca-2 cells, 3 days, Table 7; read-out: MIA PaCa-2 (IC50)
measuredMetric: IC50 (nM)
Answers are plain numbers, in nM.

Take a look at these entries with their results.
{"moleculeSmiles": "COc1ncc(-c2ccc3ncnc(N4CCC5(CN(C(=O)/C=C/C(C)=O)C5)C4)c3c2)cc1NS(=O)(=O)c1ccc(F)cc1F", "IC50 [nM]": 144}
{"moleculeSmiles": "COc1ncc(-c2ccc3ncnc(N4CCN(C(=O)/C=C/C(C)=O)CC4)c3n2)cc1NS(=O)(=O)c1cccc(F)c1F", "IC50 [nM]": 21.5}
{"moleculeSmiles": "COc1ncc(-c2ccc3ncnc(N4CCN(C(=O)/C=C/C(C)=O)C[C@@H]4C)c3c2)cc1NS(=O)(=O)c1ccccc1F", "IC50 [nM]": 68.8}
{"moleculeSmiles": "COc1ncc(-c2ccc3ncnc(N4CCN(C(=O)/C=C/C(C)=O)CC4)c3n2)cc1NS(=O)(=O)c1c(F)cc(F)cc1F", "IC50 [nM]": 5.8}
{"moleculeSmiles": "COc1ncc(-c2cc(F)c3ncnc(N4CCN(C(=O)/C=C/C(C)=O)CC4)c3c2)cc1NS(=O)(=O)c1ccc(F)cc1F", "IC50 [nM]": 155}

Note: attention shifts to another entry.
What IC50 value was documented for this compound, COc1ncc(-c2cc3c(N4CCN(C(=O)/C=C/C(C)=O)CC4)ncnc3cn2)cc1NS(=O)(=O)c1ccc(F)cc1F ?
827
